Test system: Escherichia coli TOP10;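 note: peptides expressed intracellularly from a pBAD plasmid library in pooled LB shake-flask culture, induced with 0.3% L-arabinose, DNA abundance read by NGS, three biological replicates, DESeq2 with apeglm shrinkage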
Assay: shrunken log2 fold change of peptide-encoding DNA abundance (4.5 h post-induction vs induction); higher = less antimicrobial activity (less host growth inhibition)
Conditions: time post-induction: 4.5 h; library: site-saturation at positions 5, 18, 19, 20
Heads up, the class ranges for shrunken log2 fold change are zone 1 (below -0.04), zone 2 (-0.04 to below 0.1), zone 3 (0.1 or more)

>>> assignedcategory("RRIRTRPPRLPRPRPRPFTTPRP")
"zone 2"
>>> assignedcategory("RRIRQRPPRLPRPRPRPYWKPRP")
"zone 2"
>>> assignedcategory("RRIRTRPPRLPRPRPRPVDKPRP")
"zone 1"

Any idea which band RRIRFRPPRLPRPRPRPPKMPRP is in? zone 3

Request: RRIRRRPPRLPRPRPRPVQDPRP zone 3

Request: RRIRARPPRLPRPRPRPAKVPRP zone 3

Request: RRIRFRPPRLPRPRPRPRVRPRP zone 2

Request: RRIRQRPPRLPRPRPRPKWSPRP zone 2

Request: RRIRDRPPRLPRPRPRPWRMPRP zone 1

Request: RRIRPRPPRLPRPRPRPSSFPRP zone 1

Request: RRIRNRPPRLPRPRPRPFWRPRP zone 2

Request: RRIRYRPPRLPRPRPRPCGEPRP zone 1

Origin of values: the supplement of paper PMC9112550
